# CONDITION_LABEL: in n-butanol, 283.2 K
QUANTITY_NAME: solubility (mole fraction)

q: Looking for the measured solubility (mole fraction) of O=c1c(-c2ccc(O)cc2)coc2cc(O[C@@H]3O[C@H](CO)[C@@H](O)[C@H](O)[C@H]3O)ccc12 , can you help?
a: 0.000141

* * *

# CONDITION_LABEL: in acetone, 283.2 K
QUANTITY_NAME: solubility (mole fraction)
Just the number.

q: Looking for the measured solubility (mole fraction) of O=c1c(-c2ccc(O)cc2)coc2cc(O[C@@H]3O[C@H](CO)[C@@H](O)[C@H](O)[C@H]3O)ccc12 , can you help?
a: 0.000148

* * *

# CONDITION_LABEL: in water, 313.2 K
QUANTITY_NAME: solubility (mole fraction)

q: Looking for the measured solubility (mole fraction) of O=c1c(-c2ccc(O)cc2)coc2cc(O[C@@H]3O[C@H](CO)[C@@H](O)[C@H](O)[C@H]3O)ccc12 , can you help?
a: 9.39e-06

* * *

# CONDITION_LABEL: in methanol, 303.2 K
QUANTITY_NAME: solubility (mole fraction)
Just the number.

q: Looking for the measured solubility (mole fraction) of O=c1c(-c2ccc(O)cc2)coc2cc(O[C@@H]3O[C@H](CO)[C@@H](O)[C@H](O)[C@H]3O)ccc12 , can you help?
a: 0.000339

* * *

# CONDITION_LABEL: in methanol, 313.2 K
QUANTITY_NAME: solubility (mole fraction)
Just the number.

q: Looking for the measured solubility (mole fraction) of O=c1c(-c2ccc(O)cc2)coc2cc(O[C@@H]3O[C@H](CO)[C@@H](O)[C@H](O)[C@H]3O)ccc12 , can you help?
a: 0.000516

* * *

# CONDITION_LABEL: in isopropanol, 323.2 K
QUANTITY_NAME: solubility (mole fraction)
Just the number.

q: Looking for the measured solubility (mole fraction) of O=c1c(-c2ccc(O)cc2)coc2cc(O[C@@H]3O[C@H](CO)[C@@H](O)[C@H](O)[C@H]3O)ccc12 , can you help?
a: 0.000503

* * *

# CONDITION_LABEL: in ethanol, 313.2 K
QUANTITY_NAME: solubility (mole fraction)
Just the number.

q: Looking for the measured solubility (mole fraction) of O=c1c(-c2ccc(O)cc2)coc2cc(O[C@@H]3O[C@H](CO)[C@@H](O)[C@H](O)[C@H]3O)ccc12 , can you help?
a: 0.000669

* * *

# CONDITION_LABEL: in ethanol, 293.2 K
QUANTITY_NAME: solubility (mole fraction)
Just the number.

q: Looking for the measured solubility (mole fraction) of O=c1c(-c2ccc(O)cc2)coc2cc(O[C@@H]3O[C@H](CO)[C@@H](O)[C@H](O)[C@H]3O)ccc12 , can you help?
a: 0.000397

* * *

# CONDITION_LABEL: in isopropanol, 283.2 K
QUANTITY_NAME: solubility (mole fraction)
Just the number.

q: Looking for the measured solubility (mole fraction) of O=c1c(-c2ccc(O)cc2)coc2cc(O[C@@H]3O[C@H](CO)[C@@H](O)[C@H](O)[C@H]3O)ccc12 , can you help?
a: 0.00016

* * *

# CONDITION_LABEL: in THF, 293.2 K
QUANTITY_NAME: solubility (mole fraction)
Just the number.

q: Looking for the measured solubility (mole fraction) of O=c1c(-c2ccc(O)cc2)coc2cc(O[C@@H]3O[C@H](CO)[C@@H](O)[C@H](O)[C@H]3O)ccc12 , can you help?
a: 0.00182

// data source = BigSolDB 2.1
